- study_target: T1, PRPF40A WW12 (tandem WW domains, residues 141-236) (human, UniProt O75400 141-236)
- T1 construct: A few vector residues probably remain at the N-terminus after TEV cleavage (pETM11, NcoI site); 15N-labelled in the NMR experiments; also called PRPF40A WW tandem; WW12 wt; source: E. coli BL21(DE3), purified (Ni-NTA, TEV digestion, reverse Ni-NTA, SEC); not shown: His6, N-terminal, cleaved
- T1 sequence (O75400 141-236): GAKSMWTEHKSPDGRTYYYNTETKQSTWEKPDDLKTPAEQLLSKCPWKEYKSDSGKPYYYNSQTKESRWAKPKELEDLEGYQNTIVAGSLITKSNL
- test_details: ITC; GB1-peptide or GB1-SF1 construct in the cell, PRPF40A WW12 in the syringe (as shown in Supplementary Figures 7 and 16A); 25 °C, 20 mM sodium phosphate pH 6.5, 100 mM NaCl; one-site binding model; at least duplicates; affinities apparent
- condition_info: both partners purified
pKd: −log10 of the molar value.
# maps each entry to its pKd
assay_endpoint: pKd

binder="PPPPPPPPPPPPPPPPPPPPPP [GB1-polyproline peptide P22]" recorded_measurement=5.03
binder="GB1-SF1 Pro C (residues 539-594) (domain or fragment, UniProt Q15637 539-594, looked up, splicing factor 1 (SF1), residues 539-594 of the proline-rich C-terminal region (holds the WWbs motif 575-590); His6-GB1-TEV site cassette of the pET24 vector, not cleaved; source: E. coli BL21(DE3), purified (Ni-NTA, SEC); not shown: GB1, N-terminal, kept) GSIPPWQQQQAAAAASPGAPQMQGNPTMVPLPPGVQPPLPPGAPPPPPPPPPGSAG" recorded_measurement=5.69
binder="TMVPLPPGVQPPLPPG [GB1-SF1 16-mer peptide 565-580]" recorded_measurement=4.52
binder="PPPPPPPPPPPPP [GB1-polyproline peptide P13]" recorded_measurement=5.07
